# system.name: DNA-PK (Homo sapiens (Human))
# procedure.text: DNA-PK Enzyme-Linked Immunosorbent Assay (phosphorylation of GST-p53 (1-101) peptide)
# Format: biochemical
# experimental.setup: ELISA, ATP 20 μM
Structures can show the parent of a compound that is named as a salt.
assay.readout: IC50

Consider the reported IC50 for these compounds:
                                   compound  recorded_result
0  CN(C)CCCOc1ncc(-c2ccc3ncc4c(c3c2)C2(CCC2)C(=O)N4C)cc1NS(=O)(=O)c1ccc(C(F)(F)F)nc1 [Example 146, hydrochloride]      1 to 100 nM
1  CN(C)CCCOc1ncc(-c2ccc3ncc4c(c3c2)C2(CCC2)C(=O)N4C)cc1NS(=O)(=O)c1cc(Cl)cc(C(F)(F)F)c1 [Example 154, hydrochloride]      1 to 100 nM
2  CN1C(=O)C2(CCC2)c2c1cnc1ccc(-c3cnc(OCCCN4CCCCC4)c(NS(=O)(=O)c4cncs4)c3)cc21 [Example 199, hydrochloride]         < 0.5 nM
3  COCCN(C)CCCOc1ncc(-c2cc3c4c(cnc3cc2F)N(C)C(=O)C42CCC2)cc1NS(=O)(=O)N1CCOCC1      1 to 100 nM
4  CN1C(=O)C2(CCC2)c2c1cnc1ccc(-c3cnc(OCCCN4CCCC(F)C4)c(NS(C)(=O)=O)c3)cc21 (stereo not shown)         < 0.5 nM

For each entry beneath this line, provide reported IC50.
1. CN1C(=O)C2(CC2)c2c1cnc1ccc(-c3cnc(OCCC4CCCN4C)c(NS(=O)(=O)C4CC4)c3)cc21 (stereo not shown)
2. CCNC1CN(c2ncc(-c3cc4c5c(cnc4cc3F)N(C)C(=O)C53CCC3)cc2NS(C)(=O)=O)C1

["1 to 100 nM", "0.5 to 1 nM"]

For each entry beneath this line, provide reported IC50.
1. CN(C)CCCOc1ncc(-c2ccc3ncc4c(c3c2)C2(CC2)C(=O)N4C)cc1NS(=O)(=O)c1ccc(F)c(C#N)c1
2. Cc1ccc(S(=O)(=O)Nc2cc(-c3cc4c5c(cnc4cc3F)N(C)C(=O)C53CCC3)cnc2OCCCN2CCCCC2)cn1 [Example 217, hydrochloride]
3. CN(C)CCOc1ncc(-c2ccc3ncc4c(c3c2)C2(CCCC2)C(=O)N4C)cc1NS(=O)(=O)c1ccccc1
4. CN1C(=O)C2(CCC2)c2c1cnc1ccc(-c3cnc(OCCCN4CCCCC4)c(NS(=O)(=O)c4ccccc4F)c3)cc21 [Example 195, hydrochloride]
5. CN1CCN(c2ncc(-c3ccc4ncc5c(c4c3)C3(CCC3)C(=O)N5C)cc2NS(C)(=O)=O)CC1
6. CN(C)CCCOc1ncc(-c2ccc3ncc4c(c3c2)C2(COC2)C(=O)N4C)cc1NS(=O)(=O)c1ccccc1

["< 0.5 nM", "1 to 100 nM", "0.5 to 1 nM", "0.5 to 1 nM", "< 0.5 nM", "1 to 100 nM"]

---

Record form. Attribute: pIC50. Fill in for each entry.
# system.name: ATM (Homo sapiens (Human))
# procedure.text: ATM in Cell Western Assay (pKAP1 in etoposide-treated MCF-7 cells)
# Type: cell-based
# experimental.setup: pKAP1 in etoposide-treated MCF-7 cells
pIC50: −log10 of the molar value. Counter-ions that a name gives are not always drawn.

Consider the reported pIC50 for these compounds:
>>> print(df.to_string())
                                   compound                 system_name  recorded_result
0  CC(C)NCCOc1ncc(-c2cc3c(cc2F)ncc2c3[C@]3(C[C@H](COC(C)C)C3)C(=O)N2C)cc1NS(C)(=O)=O [Example 410]  ATM (Homo sapiens (Human))     7.00 to 9.00
1  CC(C)NCCOc1ncc(-c2cc3c4c(cnc3cc2F)N(C)C(=O)C42CN(c3nnn(C)n3)C2)cc1NS(C)(=O)=O [Example 552]  ATM (Homo sapiens (Human))           < 7.00
2  COCCN[C@H]1C[C@@]2(C1)C(=O)N(C)c1cnc3cc(F)c(-c4cnc(OCCNC(C)C)c(NS(C)(=O)=O)c4)cc3c12 [Example 474]  ATM (Homo sapiens (Human))     7.00 to 9.00
3  CN(C)CCCOc1c(C#N)cc(-c2ccc3ncc4c(c3c2)C2(CCC2)C(=O)N4C)cc1NS(C)(=O)=O [Example 563]  ATM (Homo sapiens (Human))     7.00 to 9.00
4  CC(C)NCCOc1ncc(-c2cc3c4c(cnc3cc2F)N(C)C(=O)C42CN(C3CCCCC3)C2)cc1NS(C)(=O)=O [Example 499]  ATM (Homo sapiens (Human))     7.00 to 9.00
5  CN(C)CCCOc1ncc(-c2cc(F)c3ncc4c(c3c2)C2(CCC2)C(=O)N4C)cc1NS(=O)(=O)N(C)C [Example 557]  ATM (Homo sapiens (Human))     7.00 to 9.00

For each entry beneath this line, provide reported pIC50.
1. CC(C)NCCOc1ncc(-c2cc3c4c(cnc3cc2F)N(C)C(=O)C42CN(c3cccnc3)C2)cc1NS(C)(=O)=O [Example 548, hydrochloride]
2. CCS(=O)(=O)Nc1cc(-c2cc3c4c(cnc3cc2F)N(C)C(=O)C42CCC2)cnc1N1CC(N(C)C)C1 [Example 343, formate]
3. CC(C)NCCOc1ncc(-c2cc3c4c(cnc3cc2F)N(C)C(=O)C42CN(C(=O)OC(C)C)C2)cc1NS(C)(=O)=O [Example 514]
4. CC(C)NCCOc1ncc(-c2cc3c(cc2F)ncc2c3[C@]3(C[C@H](c4ccc(=O)[nH]c4)C3)C(=O)N2C)cc1NS(C)(=O)=O [Example 442]
5. CC(C)NCCOc1ncc(-c2cc3c(cc2F)ncc2c3[C@]3(C[C@@H](Nc4ccccc4)C3)C(=O)N2C)cc1NS(C)(=O)=O [Example 460, hydrochloride]
6. CC(C)NCCOc1ncc(-c2cc3c4c(cnc3cc2F)N(C)C(=O)C42CN(c3ccc(Cl)cc3)C2)cc1NS(C)(=O)=O [Example 523, hydrochloride]
7. COC(=O)N1CC2(C1)C(=O)N(C)c1cnc3cc(F)c(-c4cnc(OCCNC(C)C)c(NS(C)(=O)=O)c4)cc3c12 [Example 513]

["7.00 to 9.00", "7.00 to 9.00", "7.00 to 9.00", "< 7.00", "7.00 to 9.00", "7.00 to 9.00", "< 7.00"]

---

# system.name: ATM (Homo sapiens (Human), UniProt Q13315)
# Sequence (Q13315 whole entry): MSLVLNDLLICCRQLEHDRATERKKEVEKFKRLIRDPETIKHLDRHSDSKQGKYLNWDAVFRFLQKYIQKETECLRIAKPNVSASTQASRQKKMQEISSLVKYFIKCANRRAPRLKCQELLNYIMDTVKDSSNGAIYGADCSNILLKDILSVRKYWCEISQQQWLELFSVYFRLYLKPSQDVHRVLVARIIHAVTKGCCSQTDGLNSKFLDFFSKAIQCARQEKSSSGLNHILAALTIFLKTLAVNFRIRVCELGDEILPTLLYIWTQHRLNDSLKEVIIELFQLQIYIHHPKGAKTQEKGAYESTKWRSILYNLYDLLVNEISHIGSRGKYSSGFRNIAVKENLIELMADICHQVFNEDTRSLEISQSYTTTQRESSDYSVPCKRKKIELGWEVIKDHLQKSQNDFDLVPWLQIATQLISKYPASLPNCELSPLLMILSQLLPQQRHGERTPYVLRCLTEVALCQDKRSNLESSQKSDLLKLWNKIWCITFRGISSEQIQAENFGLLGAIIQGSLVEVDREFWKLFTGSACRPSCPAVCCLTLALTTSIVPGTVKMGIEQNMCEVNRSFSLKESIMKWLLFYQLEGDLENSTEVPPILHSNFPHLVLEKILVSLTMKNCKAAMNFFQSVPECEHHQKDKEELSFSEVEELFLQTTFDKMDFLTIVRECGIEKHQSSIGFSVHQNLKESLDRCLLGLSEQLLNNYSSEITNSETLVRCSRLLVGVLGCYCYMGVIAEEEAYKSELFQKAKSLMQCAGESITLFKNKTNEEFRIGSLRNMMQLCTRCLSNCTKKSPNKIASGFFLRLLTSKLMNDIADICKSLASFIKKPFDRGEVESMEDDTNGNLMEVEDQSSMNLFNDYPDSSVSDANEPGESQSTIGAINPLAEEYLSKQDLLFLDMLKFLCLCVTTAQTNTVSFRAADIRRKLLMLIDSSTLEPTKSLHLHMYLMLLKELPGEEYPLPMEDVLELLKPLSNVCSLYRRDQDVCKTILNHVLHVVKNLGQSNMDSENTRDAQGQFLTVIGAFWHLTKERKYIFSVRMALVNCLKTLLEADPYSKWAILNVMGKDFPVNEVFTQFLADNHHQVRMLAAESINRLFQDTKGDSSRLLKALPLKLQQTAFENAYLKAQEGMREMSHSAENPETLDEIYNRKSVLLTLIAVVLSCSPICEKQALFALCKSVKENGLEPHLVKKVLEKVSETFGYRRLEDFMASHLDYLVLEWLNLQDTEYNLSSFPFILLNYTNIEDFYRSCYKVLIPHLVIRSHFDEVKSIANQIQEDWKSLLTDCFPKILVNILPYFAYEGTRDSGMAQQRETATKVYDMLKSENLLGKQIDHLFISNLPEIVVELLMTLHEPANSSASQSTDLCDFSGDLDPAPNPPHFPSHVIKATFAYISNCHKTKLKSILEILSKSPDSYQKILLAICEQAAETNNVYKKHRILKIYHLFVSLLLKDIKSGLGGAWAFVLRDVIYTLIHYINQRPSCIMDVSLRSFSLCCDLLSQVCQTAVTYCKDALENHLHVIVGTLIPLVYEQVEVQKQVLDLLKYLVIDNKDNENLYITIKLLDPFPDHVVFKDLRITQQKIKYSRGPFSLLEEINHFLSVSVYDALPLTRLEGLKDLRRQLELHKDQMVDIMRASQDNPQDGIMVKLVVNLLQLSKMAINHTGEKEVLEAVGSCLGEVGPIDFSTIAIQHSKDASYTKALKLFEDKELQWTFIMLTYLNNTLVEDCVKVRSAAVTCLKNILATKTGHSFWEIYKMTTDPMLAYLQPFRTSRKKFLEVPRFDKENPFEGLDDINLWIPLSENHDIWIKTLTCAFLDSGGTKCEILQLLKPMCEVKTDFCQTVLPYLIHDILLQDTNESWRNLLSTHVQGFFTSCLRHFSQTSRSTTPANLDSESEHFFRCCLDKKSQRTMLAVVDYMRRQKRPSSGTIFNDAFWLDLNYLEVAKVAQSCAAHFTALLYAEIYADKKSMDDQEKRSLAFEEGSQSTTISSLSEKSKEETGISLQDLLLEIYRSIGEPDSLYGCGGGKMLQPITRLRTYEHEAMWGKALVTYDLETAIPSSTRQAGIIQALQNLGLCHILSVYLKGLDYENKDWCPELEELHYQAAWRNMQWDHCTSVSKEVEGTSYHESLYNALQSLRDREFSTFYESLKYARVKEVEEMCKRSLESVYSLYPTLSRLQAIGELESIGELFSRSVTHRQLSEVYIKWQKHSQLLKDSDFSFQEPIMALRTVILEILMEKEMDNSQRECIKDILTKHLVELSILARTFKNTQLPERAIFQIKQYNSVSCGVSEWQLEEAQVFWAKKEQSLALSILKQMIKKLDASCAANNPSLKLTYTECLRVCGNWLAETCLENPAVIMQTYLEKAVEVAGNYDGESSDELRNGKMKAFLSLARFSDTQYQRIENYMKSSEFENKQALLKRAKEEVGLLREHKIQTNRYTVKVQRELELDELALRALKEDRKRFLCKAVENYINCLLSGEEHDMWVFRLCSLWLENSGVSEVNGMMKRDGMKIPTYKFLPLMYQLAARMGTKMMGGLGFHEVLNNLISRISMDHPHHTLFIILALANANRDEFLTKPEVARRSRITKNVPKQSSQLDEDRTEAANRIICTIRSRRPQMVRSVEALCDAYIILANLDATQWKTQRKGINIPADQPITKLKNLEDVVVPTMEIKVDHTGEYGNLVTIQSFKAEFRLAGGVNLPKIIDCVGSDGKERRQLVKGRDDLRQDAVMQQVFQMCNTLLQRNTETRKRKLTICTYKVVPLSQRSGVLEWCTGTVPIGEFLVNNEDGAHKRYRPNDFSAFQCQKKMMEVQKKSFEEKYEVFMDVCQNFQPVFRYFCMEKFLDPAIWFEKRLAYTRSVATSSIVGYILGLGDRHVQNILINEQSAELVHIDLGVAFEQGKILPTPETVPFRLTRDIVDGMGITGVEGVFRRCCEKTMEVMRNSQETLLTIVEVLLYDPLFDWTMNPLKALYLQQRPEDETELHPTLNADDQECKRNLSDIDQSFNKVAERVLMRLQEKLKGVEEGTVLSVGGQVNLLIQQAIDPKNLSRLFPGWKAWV
# procedure.text: ATM in Cell Western Assay (pKAP1 in etoposide-treated MCF-7 cells)
# Assay type: cell-based
# experimental.setup: pKAP1 in etoposide-treated MCF-7 cells
pIC50: −log10 of the molar value.
assay.readout: pIC50

Consider the reported pIC50 for these molecules:
                                   molecule                               system_name  recorded_result
0  CC(C)NCCOc1ncc(-c2cc3c(cc2F)ncc2c3[C@]3(C[C@H](OC(C)c4ccccc4)C3)C(=O)N2C)cc1NS(C)(=O)=O (stereo partly drawn)  ATM (Homo sapiens (Human), UniProt Q13315)     7.00 to 9.00
1  CN(C)CCCOc1ncc(-c2ccc3ncc4c(c3c2)[C@]2(C[C@@H](O)C2)C(=O)N4C)cc1NS(C)(=O)=O  ATM (Homo sapiens (Human), UniProt Q13315)     7.00 to 9.00

Please provide the recorded pIC50 for `CC(C)NCCOc1ncc(-c2cc3c(cc2F)ncc2c3[C@]3(C[C@H](Nc4ccc(Cl)cc4)C3)C(=O)N2C)cc1NS(C)(=O)=O` , tested on ATM (Homo sapiens (Human), UniProt Q13315).
7.00 to 9.00

---

Record form. Attribute: pIC50. Fill in for each entry.
# system.name: ATM (Homo sapiens (Human))
# procedure.text: ATM in Cell Western Assay (pKAP1 in etoposide-treated MCF-7 cells)
# Type: cell-based
# experimental.setup: MCF-7 cells, etoposide 100 μM, 1 hr, pKAP1 readout
# Description: Assay of Compounds ATM and DNA-PK Inhibition ATM in Cell Western Assay: Next day, add corresponding concentration of compounds using pin tool (Echo 550), the final top concentration is 1 μM, 3-fold series dilution, total 10 doses. Then add etoposide (Sigma, #E1383) to a final concentration of 100 μM. Incubate at 37° C. for 1 hr. Fix cells by adding 25 μL of fixing solution (8% paraformaldehyde) for 20 minutes at ambient temperature. […]
pIC50: −log10 of the molar value. Structures can show the parent of a compound that is named as a salt.

Consider the reported pIC50 for these compounds:
In [3]: df
Out[3]:
                                   compound  assay_readout  recorded_result
0  CN(C)CCCOc1ncc(-c2ccc3ncc4c(c3c2)N(C)C2(CC2)C(=O)N4)cc1NS(=O)(=O)c1ccccc1          pIC50           < 7.00
1  CN1C(=O)C2(CCC2)c2c1cnc1cc(F)c(-c3cnc(N4CC(N(C)C)C4)c(NS(=O)(=O)C4CC4)c3)cc21 [Example 319, hydrochloride]          pIC50     7.00 to 9.00

For each entry beneath this line, provide reported pIC50.
1. CN(C)CCCOc1ncc(-c2ccc3ncc4c(c3c2)C2(CCC2)C(=O)N4C)cc1NS(=O)(=O)C1CC1
2. CN(C)CCCOc1c(F)cc(-c2ccc3ncc4c(c3c2)C2(CC2)C(=O)N4C)cc1NS(=O)(=O)c1ccccc1
3. CCc1ncc(S(=O)(=O)Nc2cc(-c3ccc4ncc5c(c4c3)C3(CCC3)C(=O)N5C)cnc2OCCNC)s1
4. COc1ccc(S(=O)(=O)Nc2cc(-c3ccc4ncc5c(c4c3)C3(CCC3)C(=O)N5C)cnc2OCCCN(C)C)cc1 [Example 144, hydrochloride]

1. 7.00 to 9.00
2. 7.00 to 9.00
3. 7.00 to 9.00
4. 7.00 to 9.00

For each entry beneath this line, provide reported pIC50.
1. CN1C(=O)C2(CCC2)c2c1cnc1ccc(-c3cnc(OCCCN4CCCCC4)c(NS(=O)(=O)C4CC4)c3)cc21 [Example 197, hydrochloride]
2. Cc1ccc(S(=O)(=O)Nc2cc(-c3ccc4ncc5c(c4c3)C3(CCC3)C(=O)N5C)cnc2N2CCC(N3CCCCC3)CC2)cn1 [Example 198, hydrochloride]
3. CCN1C(=O)C2(CCC2)c2c1cnc1ccc(-c3cnc(N4CC(N(C)C)C4)c(NS(C)(=O)=O)c3)cc21
4. CN1C(=O)C(C)(c2ccncc2)c2c1cnc1ccc(-c3cnc(Cl)c(NS(=O)(=O)c4ccccc4)c3)cc21 (stereo not shown)
5. CN(C)CCCOc1ncc(-c2ccc3ncc4c(c3c2)C2(COC2)C(=O)N4C)cc1NS(=O)(=O)C1CC1
6. CN(C)CCCOc1ncc(-c2ccc3ncc4c(c3c2)C2(CCC2)C(=O)N4C)cc1NS(=O)(=O)c1ccc(O)cc1 [Example 220, hydrochloride]
7. Cc1ccc(S(=O)(=O)n2c(CCN3CCCCC3)cc3ncc(-c4ccc5ncc6c(c5c4)C4(CCC4)C(=O)N6C)cc32)cn1

1: 7.00 to 9.00; 2: 7.00 to 9.00; 3: 7.00 to 9.00; 4: < 7.00; 5: 7.00 to 9.00; 6: 7.00 to 9.00; 7: 7.00 to 9.00
